B1: F1*; the commonest letter at each place (parent)
chain: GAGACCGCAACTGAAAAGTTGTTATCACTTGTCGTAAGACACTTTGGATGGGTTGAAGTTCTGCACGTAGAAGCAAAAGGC

Variants of: B1
Assay: fraction ligated after 30 min (ligated reads / total reads); higher = more ligase activity
Conditions: with F1*sub RNA substrate (template-directed ligation), 42 °C
fraction ligated vs 0.8: at or above is yes, below is no.

Some entries whose results are on file:
> print(dat)
                             query.sequence  classification
1  GAGACCGCAACTGAAAAGTTGTTGTCACTTGACGTAAGACACTTTGGATGGGTTGAAGTTCTGCACGTAGAAGCAAAAGGC              no
2  GAGACCGCAACTGAAAAGTTGTTATGACTTGTCGTAAGACACTTTGGATGGGTTGATGTTCTGCACGTAGAAGCAAAAGGC              no
3  GAGACCGCAACTGAAAAGTTGTTATCACTTGCCGTAAGACACTTTGGATCGGTTGAAGTTCTGCACGTAGAAGCAAAAGGC              no
4  GAGACCGCAACTGAAAAGTTGTTATCACTTGTCGTATCACACTTTGGATGGGTTGAAGTTCTGCACGTAGAAGCAAAAGGC             yes
5  GAGACCGCAACTGAAAAGTTGTTGTCACTTGTCGGAAGACACTTTGGATGGGTTGAAGTTCTGCACGTAGAAGCAAAAGGC              no

Does the variant GAGACCGCAACTGAAAAGTTGTTATCACTTGTCGAAAGACACTATGGATGGGTTGAAGTTCTGCACGTAGAAGCAAAAGGC have recorded fraction ligated that is 0.8 or more?
yes

Exam item: decide whether the reported fraction ligated for GAGACCGCAACTGAAAAGTTGTTATCACTTGTCGTAGGCCACTTTGGATGGGTTGAAGTTCTGCACGTAGAAGCAAAAGGC is at least 0.8.
no

Is it the case that GAGACCGCAACTGAAAAGTTGTTATCAATTATCGTAAGACACTTTGGATGGGTTGAAGTTCTGCACGTAGAAGCAAAAGGC has fraction ligated reaching or exceeding 0.8?
yes

Just for reference, the supplement of paper PMC6755084 is where these values come from.
